Test system: SK-MEL-5 melanoma
experiment: NCI-60 one-dose screen, 48 h (100 = growth as untreated, 0 = no growth, -100 = all killed)
setup-conditions: 10 µM unless noted
The panel holds about 83,000 compounds, 20% with a hit somewhere; the sample as a whole holds those more often.
growth vs 90%: less than gives T; not less than gives F.

Below are worked cases with known answers.
Does this compound meet the criterion growth < 90%? NC(=O)NN=C(C1CC1)C1CC1
F

Similarly, CC(=O)Oc1ccc(C2OC(c3ccc4ccccc4c3OC(C)=O)=NN2C(C)=O)c(OC(C)=O)c1 (stereo unspecified) ?
T

Similarly, Clc1ccc2nc(Cl)c3ccccc3c2c1 ?
T

Next:
Does this compound meet the criterion growth < 90%? Cc1cc2c(cc1[N+](=O)[O-])NC(CNC(C)C)CC2 (stereo unspecified)
F

* * *

Test system: SNB-75 CNS
experiment: NCI-60 one-dose screen, 48 h (100 = growth as untreated, 0 = no growth, -100 = all killed)
setup-conditions: 10 µM unless noted
This is part of a sample that, as a whole, favours compounds with a hit. Of some 83,000 tested, about 20% had one in any assay. Activity calls are given as the source filed them. How the source made its calls: active means growth percent below 10; inactive means the rest.
Entries and their growth values follow.

Report growth for CCOc1nc(-c2ccccc2)cc2c(O)c(C(=O)n3nc(C)cc3C)[nH]c(=O)c12 please.
94.4% (inactive)

Next:
Report growth for O=C(Nc1ccc(OCc2nnc(-c3ccccc3)o2)c(F)c1)Nc1ccc(Cl)c(C(F)(F)F)c1 please.
40.2% (inactive)

Similarly, O=C1CC(=O)N(c2ccccc2)O1 ?
85% (inactive)

Similarly, COc1ccc(C2=NN(C(C)=O)C(c3cc(OC)c(OC)c(OC)c3)C2)cc1 (stereo not given) ?
96.6% (inactive)

Similarly, Clc1ccc(CCC(Cn2ccnc2)Sc2c(Cl)cccc2Cl)cc1 (stereo not given) ?
92.5% (inactive)

Similarly, Cc1cc(NC(=O)c2ccc(N)cc2)ccc1N=Nc1ccc2c(O)c(N=Nc3ccc(Cl)c(S(=O)(=O)O)c3)c(S(=O)(=O)O)cc2c1 ?
104% (inactive)

Similarly, OC(CCC(O)(c1ccccc1)c1ccccc1)(c1ccccc1)c1ccccc1 ?
83.9% (inactive)

Similarly, ClC1C2CC(c3ccccc32)C1Cl (stereo not given) ?
102% (inactive)

Similarly, O=C1/C(=N/O)CCc2ccccc21 ?
82.2% (inactive)

Similarly, Oc1ccc(-c2nn(-c3ccccc3)cc2-c2nc3ccccc3s2)cc1 ?
101% (inactive)

* * *

Test system: OVCAR-8 ovarian
experiment: NCI-60 one-dose screen, 48 h
setup-conditions: 10 µM unless noted
This is part of a sample that, as a whole, favours compounds with a hit. Of some 83,000 tested, about 20% had one in any assay. Calls of active or inactive are those of the source. The calls were made as follows: active = growth percent below 10; inactive = the rest.
Permitted responses: 1 (yes) = active, 0 (no) = inactive

Please share the test call associated with CCC(c1ccccc1)c1noc(CCN(CC)CC)n1 (centres undefined) .
0 (no)

Similarly, C/C(=C\CCc1ccoc1)CC/C=C(\C)CCCN1CCC(CO)CC1 ?
0 (no)

Similarly, CCC(C)CC(C)C(=O)c1c(O)ccn(O)c1=O (centres undefined) ?
0 (no)

Similarly, CSc1ccc2c(c1)N(CCC1CCCCN1C)c1ccccc1S2 (centres undefined) ?
0 (no)

Similarly, Cc1cc(C)c(OC(=O)CSc2nc3ccccc3c(=O)n2CCc2ccccc2)cc1C ?
0 (no)

Similarly, CCOC(=O)c1c(NC(=O)C2CCCCC2C(=O)O)sc2c1CCCC2 (centres undefined) ?
0 (no)

Similarly, Cn1cc(-c2csc(-c3cn(C)c4ncccc34)n2)c2cc(F)cnc21 ?
0 (no)

Similarly, CN(CC(=O)N(Cc1ccc(C2CCCCC2)cc1)c1ccc(C(=O)O)cc1)S(=O)(=O)c1c(F)c(F)c(F)c(F)c1F ?
1 (yes)

Similarly, N#Cc1ccc(NC(=O)Nc2ccc(Oc3ccc(NC(=O)Nc4ccc(C#N)cc4)cc3)cc2)cc1 ?
0 (no)

Similarly, CCC1(c2ccccc2)Oc2ccccc2-n2c(C#N)c3ccccc3c2C1=O (centres undefined) ?
0 (no)

Next:
Please share the test call associated with Cn1cc(-c2csc(-c3cn(C)c4ncccc34)n2)c2cc(Br)cnc21 .
0 (no)

Similarly, O=C(Nc1cccc([N+](=O)[O-])c1)c1cccc(C(=O)Nc2cccc([N+](=O)[O-])c2)c1 ?
0 (no)

Similarly, COc1ccc2nc(NC(=O)c3cc(-c4ccc(F)cc4)n4nc(-c5ccccc5)cc4n3)sc2c1 ?
0 (no)

Similarly, c1ccc(-n2nnnc2-c2cccc3ccccc23)cc1 ?
0 (no)

Similarly, CN(C(=O)c1ccccc1)N(C)C(=O)c1ccccc1 ?
0 (no)

Similarly, O=C(C(Br)Br)C(Br)C(Br)c1ccccc1 (centres undefined) ?
0 (no)

Similarly, CCCCCCC/C(=N\N=C(N)N)c1ccc(O)cc1 ?
0 (no)

Similarly, S=C1SCN(Cc2ccccc2)CN1Cc1ccco1 ?
0 (no)

Similarly, [O-]/[N+](=C\C=C\c1ccccc1)c1ccccc1 ?
0 (no)

Similarly, Cc1cc2c(cc1[N+](=O)[O-])NC(CNC(C)C)CC2 (centres undefined) ?
0 (no)

Origin of the recorded values: PubChem BioAssay (NCI)
